Assay: in vivo
Set-up: species or system Swiss albino mice
Conditions: Swiss albino, mouse, iv, 10 pmol peptide, total radioactivity, %ID/g tissue, Femur
Measurement Label: tissue uptake at 72 h (%ID/g)
Give your result in %ID/g as a bare value.

The value of tissue uptake at 72 h measured for the compound CSCC[C@H](NC(=O)[C@H](Cc1c[nH]c2ccccc12)NC(=O)CNC(=O)[C@H](Cc1ccc(O)cc1)NC(=O)[C@H](C)NC(=O)[C@@H](CCC(=O)O)NC(=O)[C@@H](CCC(=O)O)NC(=O)[C@@H](CCC(=O)O)NC(=O)[C@@H](CCC(=O)O)NC(=O)[C@@H](CCC(=O)O)NC(=O)[C@@H](CCC(=O)O)NC(=O)CN1CCN(CC(=O)O)CCN(CC(=O)O)CCN(CC(=O)O)CC1)C(=O)N[C@@H](CC(=O)O)C(=O)N[C@@H](Cc1ccccc1)C(N)=O [^111In-CP04, metal not drawn] turned out to be 0.49
